Assay Name: yeast display, Sf9 membrane polyspecificity reagent, FACS + sequencing; frameworks hold sequencing errors
Readout Type: polyreactivity (PSR sort gate)

Below: 4 sequences and their reported polyreactivity (PSR sort gate).
QVQLVETGGGLVQAGGSLRLSCAASGFTFYGYAMGWYRQAPGKERELVAAISSSGGRTYYADSVKGRFTISRDNAKNTVYLQMNSLKPEDTAVYYCAVDYYGKVGDDYLGQGTQVTVSS | low polyreactivity
QVQLVESGGGLVQAGGSLRLSCAASGSIFVGYAMGWYRQAPGKVRELVAAISRRGGSTYYADSVKGRFTISRDNAKNTLYLQMNSLKPEDTAVYYCAARQSTSATSGYYSWGQGTQVTVSS | high polyreactivity
QVQLVESGGGLVQAGGSLRLSCADSGRTFTNNAMGWYIQAPGKERELVAAITSGGRTNYADSVKGRFTISRDNAKNTVYLQMNSLKPEDTAVYYCAARIPSDGYYYWGQGTQVTVSS | high polyreactivity
QVQLVESGGGLVQAGGSLRLSCAPSGYIFEIYAMGWYSQEPGKERELVAAISTRGGRTYYADSVKGRFTISRDKAKNTVYLQMNSLKPEDTAVYYCAAGFPYKFTYVGGYNHWGQGTQVTVSS | low polyreactivity

Provide one value: measured polyreactivity (PSR sort gate) of QVQLVESGGGLFHAGGSLRLSCSASGLTFDINAMGWYRQEPGKERELVAAISRSGGRTYYADSVKGRFTISRDNAKNTVFLQMNSLKPEDTAVYYCADRFIYGYDYWGQGTQVTVSS
high polyreactivity

Provide one value: measured polyreactivity (PSR sort gate) of QVQLVESGGGLVQAGGSLRLSCAASGGIFGTNDLGWSRQAPGKERELVAAITSDSGSTYYADSVKGRFTISRDNAKNTVYLQMTSLKPEDTAVYYCAAEDGPWFYRYGYWGQGTQVTVSS
low polyreactivity

Provide one value: measured polyreactivity (PSR sort gate) of QVQLVESGGGLVQAGGSLRLSCAASGRISNDYAMGWYRQAPGKDRELVATITFSGGDTYYADSVKGRFTISRDHAKNTVYLQMNSLKPEDTAVYYCAASKWPSYSGGWWRLLFDYWGQGTQVTVSS
low polyreactivity

Provide one value: measured polyreactivity (PSR sort gate) of QVQLVESGGGLVQAGGSLRLSCAASGGTFPLYAMGWYRPAPGKERELVAAIRWSGGRTYYADSVKGRFTISRDNAKNTVYLQMNSLKPEDTAVYYCAADYDDGWGYDYWGQGTQVTVSS
high polyreactivity

Provide one value: measured polyreactivity (PSR sort gate) of QVQLVESGGRLVQAGGTLPLSSAASGLIFGYYAMGFYIQAPGKERELDADISSGGSTNYADSVKGRFTISRENAKNTVYLQMNRLTPEDTAVFYCAARYSRWFGYCGQGTQVTVSS
high polyreactivity

Provide one value: measured polyreactivity (PSR sort gate) of QVQLVESGGGLVQAGGSLRLSCAASGRIFDSNAMGWYRQAPGKERELVATISYRGGRTYYADSVKGRFTISRDNAKNTVYLQMNSLKPEDTAVYYCAVRYWVSGFRAGYYWGQGTQVTVSS
high polyreactivity

Provide one value: measured polyreactivity (PSR sort gate) of QVQLVESGGGLVQAGGSLRLSCAASGSIFSANAMGWYRQAPGKERELLAAISSSGNTNYADSVKGRFTISRDNAKNTVYLQMNSLKPEDTAVYYCAVELKQVTPGLGYITLDYWGQGTQVTVSS
low polyreactivity

====

Assay Name: yeast display, Sf9 membrane polyspecificity reagent, FACS + sequencing; frameworks hold sequencing errors
Readout Type: polyreactivity (PSR sort gate)

Below: 8 sequences and their reported polyreactivity (PSR sort gate).
QVQLVESGGGLVQAGGSLRLSCAASGRTFGYYAMGWYRQAPGKERELVAAISRSGSRTYYADSVKGRFTISRDNAKNTVYLQMNSLKPEDTAVYYCNKVKEFYVPTEYDYWGQGTQVTVSS | high polyreactivity
QVQLVESGGGLVQAGGSLRLSCAASGIIFSKYAMGWYRQAPGKERELVARISWRGGDTYYADSVKGRFTISRDNAKNTVYLQMNSLKPEDTAVYYCNARIWGRYFSYTRFDYWGQGTQVTVSS | high polyreactivity
QVQLVESGGGLVQAGGSLSLSCAASGFIFGWYAMGWFRQAPGKERELVAAIYASGTRTYYADSVKGRFTISRDNAKNTVYLQMNSLKPEDTAVYYCNVYTKFVYAYDYWGQGTQVTVSS | high polyreactivity
QVQLVESGGGLVQAGGSLRLRCAASGRTFKVYAMGWYRQAPGKERELVAAISYSGAGTRYADSVKGRFTISRDNAKNTVYLQMNSLKPEDTAVYYCNTDAWARVKRYEYWGQGTQVTVSS | low polyreactivity
QVQLVESGGGLVQAGGSLRVSCAASGNTFGGYAMGWYRQAPGKERELVAAISSSGGSTYYADSVKGRFTISRDNAKNTVYLQMNSLKPEDTAVYYCAAYGGVYGYWTMGYWGQGTQVTVSS | high polyreactivity
QVQLVESGGGLVLAGGSLRLSCAASGSTFGDYAMGWYRQAPGNERELVAAISARGASTYYADSVKGRFTISRDNAKNTVYLQMNSLKPEDTAVYYCAARYVSSGRRFDYWGQGTQVTVSS | high polyreactivity
QVQLVESGGGLVQAGGSLRLSCAASGRTWFYAMGWYRQAPGKERELVAVISRSGASTNYADSVKGRFTISRDNAKNTVYLQMNSLKPEDTAVYYCAAGWRYRGGYWYPRLEYGYWGQGTQVTVSS | high polyreactivity
QVQLVESGGGLVQAGGSLRLSCAASGITFVRYTMGWYRQAPGKEREFVAGITRGGSTYYADSVKGRFTISRDNAKNTVYLQMNSLKPEDTAVYYCAARPRFLRASVEYDYWGQGTQVTVSS | high polyreactivity

Continue with the sequence presented below.
Provide one value: measured polyreactivity (PSR sort gate) of QVQLVESGGGLVQAGGSHRLSCAASGIIFRFYAMGCYRQAPGTERELVAAITSSGGSTYYADSVKGRFTISRDNAKNTVYLQMNSLNPEDTAVYYCYARVFSQSHYYYWGQGTQVTLSS
high polyreactivity

====

Assay Name: yeast display, Sf9 membrane polyspecificity reagent, FACS + sequencing; frameworks hold sequencing errors
Readout Type: polyreactivity (PSR sort gate)

QVQLVESGGGLVQAGGSLRLSCASSGRTFWYYAMGWYRQPPGKERELVAAITSGGSTNYADSVKGRFTISRDNAKNTVYLQMNSLKPEDTAVYYCATDNPVFEYDYWGQGTQVTVSS | low polyreactivity
QVQLVESGGGLVQAGGSLRLSCAASGLTFVIYAMGWYRQAPGKERELVARITWSGGSTYYADSVKGRFTISRDNAKNTVYLQMNSLKPEETAVDYCAARRFYYYNAGYDSWGQGTQVTVSS | low polyreactivity
QVQLVESGGGLVQAGGSLRLSCAASGFIFTDNAMGWYRQAPGKDREFVAAITYSGGSTYYADSVKGRFTISRDNAKNTVYFQMNSLKPVDTAVYYCNKDVFPAPGGVTAYEYEYWGQGTQVTVSS | low polyreactivity

====

Assay Name: yeast display, Sf9 membrane polyspecificity reagent, FACS + sequencing; frameworks hold sequencing errors
Readout Type: polyreactivity (PSR sort gate)

QVQLVESGGGLVQAGGSLRLSSAASGYTFTINTMGWYRQAPGKERELVAAITWRGGSTYYADSVKGRFSISRDNAKNTVYLQMNSLKPEDTAVYYCNKDYYITTTTFDYWGQGTQVTVSS | low polyreactivity
QVQLVESGGGLVQAGGSLRLSCAASGSIFSYKTMGWYRQAPGKERELVAAISSDGSTYYADSVKGRFTISRDNAKNTVYLQMNSLKPEDTAVYYCAATYYPYEHYYWGQGTQVTLSS | low polyreactivity
QVQLVESGGGLVQAGGRLRLSCAASGGIFRRNAMGWYRPAPGKERELVAAISRSGGRTYYADSVKGRFTISRDNAKTSVYLQMNSLKPEDTAVYYCNADYGTRAGVDYWGQGTQVTVSS | low polyreactivity

====

Assay Name: yeast display, Sf9 membrane polyspecificity reagent, FACS + sequencing; frameworks hold sequencing errors
Readout Type: polyreactivity (PSR sort gate)

QVQHVESGGGLVQAGGSLRLSCAASGYTFGYYAMGWYRQAPGKERELVASITERGGSTYYADSVKGRFTISRDNAKNTVYLQMNSLKPEDTAVYYCAADWDPSWWLFPTSSYDYWGQGTQVTVSS | low polyreactivity
QFQLVESGGGLVQAGGSLRLSCAASGFIIRVNAMAWYRQAPGTERQLVATITWNGGSTYYADSVKGRFTISRDNAKNTVYLQMNSLKPDDTAVYYCNRVRYRGYYPGPYSYSYDYWGQGTQVTVSS | low polyreactivity
QVQLVESGGGLVQAGGSLRLSCAASGRIFPYYDMGWYRQAPGKERELVAAITWNGGSTYYADSVKGRFTISRDNAKNTVFLQMNSLKPEDSAVYYCAVEPYYYGEDYWGQGTQVTVSS | low polyreactivity
QVQLVESGGGLVQAGGSLRLSCAASGRTFGYNAMAWYRQAPRKERELVAAISRGGSTNYADSVKGRFTISRDNAKNTVYLQMNSLKPEDTAVYYCAAYDWRVLWGYDYWGQGTQVTVSS | low polyreactivity
QVQLVESGGGLVQAGGSLRLSCAASGITFQHYSMGWYRQAPGKERELVAAISSSGGRTYYADSVKGRFTISRDNAKNTVYLQMNSLKPEDTAVYYCNGVDRYNRFDSWGQGTQVTVSS | high polyreactivity
QVQLVESGGGLVQAGGSLRLSCAASGRIFTRYAMGWYRHAPGKERELVAAITASGGRTYYADSVKGRFTISRDNAKNTVYLQMNSLKPEDTAVYYCAATYHRYYETQDSYDYWGQGTQVTVSS | high polyreactivity

Provide one value: measured polyreactivity (PSR sort gate) of QVQLVESGGGLVQAGGSLRLSCAASGSTFKRYAMAWYREGPGKEMDLVASISRSGCSTYYADSVKGRFTISRDNAKNSVYLQMNSLIPEDTAVYYCASRGFSFSFSYPSYDYWGQGTQVTVSS
high polyreactivity
